# System Tested: Rap guanine nucleotide exchange factor 3 (Homo sapiens) (UniProt O95398)
# Sequence (O95398 whole entry, looked up): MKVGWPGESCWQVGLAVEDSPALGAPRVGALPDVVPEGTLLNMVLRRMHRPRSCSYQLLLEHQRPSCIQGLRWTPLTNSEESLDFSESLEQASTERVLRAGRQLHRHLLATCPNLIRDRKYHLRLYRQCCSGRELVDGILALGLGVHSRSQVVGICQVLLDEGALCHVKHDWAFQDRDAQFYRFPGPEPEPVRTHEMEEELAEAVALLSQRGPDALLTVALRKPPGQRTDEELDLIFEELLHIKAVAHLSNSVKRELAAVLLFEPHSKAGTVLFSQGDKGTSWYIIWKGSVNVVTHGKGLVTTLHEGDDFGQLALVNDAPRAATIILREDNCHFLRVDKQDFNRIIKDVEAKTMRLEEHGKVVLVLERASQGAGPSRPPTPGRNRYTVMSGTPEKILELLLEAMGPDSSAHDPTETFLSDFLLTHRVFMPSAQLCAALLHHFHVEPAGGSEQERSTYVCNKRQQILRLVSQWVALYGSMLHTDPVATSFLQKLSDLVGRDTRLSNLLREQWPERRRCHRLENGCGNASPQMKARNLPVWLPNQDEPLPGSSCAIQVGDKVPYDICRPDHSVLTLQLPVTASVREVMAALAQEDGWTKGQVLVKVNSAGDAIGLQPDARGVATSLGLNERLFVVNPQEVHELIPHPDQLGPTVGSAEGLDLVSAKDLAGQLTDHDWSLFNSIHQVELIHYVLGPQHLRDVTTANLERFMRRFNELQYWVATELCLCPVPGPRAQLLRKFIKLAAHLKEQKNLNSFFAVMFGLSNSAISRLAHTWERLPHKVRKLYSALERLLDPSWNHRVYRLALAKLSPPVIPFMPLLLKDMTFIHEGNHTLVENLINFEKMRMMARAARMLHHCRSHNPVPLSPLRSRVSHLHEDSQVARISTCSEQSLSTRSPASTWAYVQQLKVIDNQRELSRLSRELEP
# Experimental Protocol: Counterscreen qHTS for agonist of cAMP-regulated guanine nucleotide exchange factor 3 (EPAC1) (AID 1645889); also: potency is read from the fitted curve at half-maximal effect; nearly all actives have a fitted effect of over 40% in size
# Test Parameters: EPAC1 Rap1B-BODIPY-GDP exchange, fluorescence; series mostly up to 154 µM
Records with an inconclusive call do not appear. Activity calls are given as the source filed them. Calls follow the shape of the dose curve; as a rule, active = well fitted activation curve with a large enough effect; inconclusive = small, poorly fitted or top-dose-only effect, or another doubt; inactive = no such curve, though single readings can be large or run the other way.
Reported Property: Potency

Compound	Reported Measurement
O=C(OCCN1C(=O)c2cccc3c(N4CCOCC4)ccc(c23)C1=O)c1cccc(Cl)c1	3.16 µM (active)
Brc1ccc(CSc2nccn2-c2ccccc2)cc1	1.58 µM (active)
COc1cc(/C=C2/C(=O)c3cccc([N+](=O)[O-])c3C2=O)c(Br)cc1O	31.6 µM (active)
Cc1ccc(CNC(=O)c2cccc3c2C(=O)c2ccc(N4CCC(C)CC4)cc2S3(=O)=O)cc1	11.2 µM (active)
CN1C(=O)c2cccc3c(N)ccc(c23)C1=O	10 µM (active)
CCN1C(=O)c2cccc3c(N)ccc(c23)C1=O	35.5 µM (active)
Cc1ccc(CNC(=O)c2cccc3c2C(=O)c2ccc(N4CCCCC4)cc2S3(=O)=O)cc1	11.2 µM (active)
COCCn1c2nc(=O)n(-c3ccccc3)c(=O)c-2nc2ccccc21	39.8 µM (active)
Nc1ccc2nc3c(=O)n(C4CCCCC4)c(=O)[nH]c3nc2c1	22.4 µM (active)
CC(C)n1cc(/C=C/c2cc[n+](C)cc2)c2ccccc21	56.2 µM (active)
O=C(O)c1ccc(NS(=O)(=O)c2ccc3c(c2)C2C=CCC2C(c2ccccc2F)N3)cc1 (stereo unspecified)	44.7 µM (active)

---

# System Tested: Rap guanine nucleotide exchange factor 4 (Homo sapiens)
# Experimental Protocol: Confirmatory qHTS for antagonist of cAMP-regulated guanine nucleotide exchange factor 4 (EPAC2) (AID 1645885); also: nearly all actives have a fitted effect of over 25% in size
# Test Parameters: EPAC2 Rap1B-BODIPY-GDP exchange fluorescence, biochemical; series mostly up to 12.7 µM
Results filed as inconclusive are left out. Activity calls are given as the source filed them. The call rests on the fitted dose curve; in most records, active means well fitted inhibition curve with a large enough effect; inconclusive means small, poorly fitted or top-dose-only effect; inactive means no such curve, though single readings can be large or run the other way.
Possible outcomes: Yes for active, No for inactive

Molecule	Assigned Class
CCc1nc2c(OCc3ccc(OC(F)F)cc3)cccn2c1N(C)C(=O)c1cccs1	No
COc1ccc(C2=NN(c3ccccc3)C(c3cn(CCC(=O)O)nc3-c3ccccc3)C2)cc1 (stereo not drawn)	No
CCc1ccc(/C=C2\SC(=S)N(CCCC(=O)Nc3ccccc3C(=O)O)C2=O)cc1	No
CCn1c(SCC(=O)N/N=C/C=C\c2ccco2)nc2ccccc21	No
O=C1/C(=C/c2cccs2)COc2ccccc21	No
C=CCOC(=O)C1=C(C)NC(C)=C(C(=O)OCC=C)C1c1ccco1	No
O=C1C=C(Nc2cccc3cccnc23)c2ccccc2C1=O	No
O=S(=O)(O)c1cc(O)c(N=Nc2ccc(O)cc2O)c2ccccc12	Yes
COc1ccc(CNC(=O)C(C#N)c2nc3ccccc3nc2N2CCCC2)cc1 (stereo not drawn)	No
COc1cc(/C=C2\SC(=O)N(CC(=O)Nc3ccc(C)cc3)C2=O)cc(Cl)c1OCC(=O)O	No
CCC1=NN2C(=N)/C(=C/c3ccc(OS(=O)(=O)c4ccccc4)cc3)C(=O)N=C2S1	No
CC(C)CC(NS(=O)(=O)OCC(Cl)(Cl)Cl)c1ccccc1 (stereo not drawn)	No
CCCN(CCC)C(=O)Cn1c(=O)c2sccc2n2c(=S)sc(-c3ccccc3)c12	No
COc1cc(N)c(Cl)cc1C(=O)OCC(=O)c1ccc2c(c1)NC(=O)CO2	No
Cc1ccc(C(=O)N(Cc2ccco2)Cc2sccc2C)cc1	No
CC(C)Nc1nc(NC(C)C)nc(OCCOC(=O)c2ccccc2)n1	No
COc1cccc(NC(=O)/C(C#N)=C/c2ccc(-c3ccc(C)cc3)o2)c1	No
O=C1C=CC(c2ccccc2)(c2ccccc2)CC1	No
Cc1cccc(NC(=O)CN2C(=O)N/C(=C\c3ccccc3OCc3ccc(C(=O)O)cc3)C2=O)c1	No
CCC1=NN(C(=O)c2ccc(Br)cc2)C(O)(c2ccccc2)C1 (stereo not drawn)	No
CCOC(=O)c1c(NC(=O)c2ccccc2OCC)sc2c1CCC(CC)C2 (stereo not drawn)	No
Cc1ccccc1SCC(=O)Nc1cc(C(F)(F)F)ccc1N1CCOCC1	Yes
CSc1ccc(/C=N/NC(=O)CN2CCN(Cc3ccc(Cl)cc3)CC2)cc1	No
O=C(NCCOc1ccccc1F)c1ccccc1SCc1ccc(F)cc1	Yes
CCOC(=O)Nc1cc2c(c(N)n1)N=C(c1ccccc1)CN2	No
Cc1cccc(C(C)C)c1-n1nnnc1-c1ccccc1	Yes
COc1ccc(NC(=O)CSc2nc(O)cc(=O)n2-c2ccc(OC)cc2)cc1	No
O=C(NC1CCCC1)c1cccc2c1C(=O)c1ccc(N3CCCCC3)cc1S2(=O)=O	No
O=c1c2cc([N+](=O)[O-])cc([N+](=O)[O-])c2[nH]n1-c1ccccc1	No
Cc1ccc(CNc2nc(NCc3ccccc3)nc3ccsc23)c(C)c1	No
COc1ccc(NC(=O)CN2CCN(c3c(C)cc(C)cc3C)CC2)cc1	No
Cc1nc(NC(=O)c2c(-c3ccccc3)c(-c3ccccc3)nn(C)c2=O)sc1C	No
Cc1ccc(-c2nc3ccc(C)cn3c2CC2CCCCC2)cc1	No
CCc1ccc(N=C2NC(=O)/C(=C/c3cc(Br)c(OCC(=O)O)c(OC)c3)S2)cc1	No
C/C(=N\NC(=O)CC#N)c1cc2ccc(O)cc2oc1=O	No
CC1=C(C(=O)OC2CCCCCC2)C(c2c(Cl)cccc2Cl)CC(=O)N1 (stereo not drawn)	No
COc1cc2ccccc2cc1C(=O)NC(=S)Nc1cccc(C(=O)O)c1	No
C=CCN(CC=C)Cc1cc(=O)oc2cc(OC)c(Cl)cc12	No
CCCC1=C/C(=C/c2ccc(-c3ccccc3OC)o2)C(=O)O1	No
N#CC(C#N)=C1C=C2C=C(N3CCCCCC3)CCC2CC1 (stereo not drawn)	No
COC(=O)c1cc(NC(=O)CC2SCCNC2=O)cc(C(=O)OC)c1 (stereo not drawn)	No
Cc1occc1-c1nnc(SCC(=O)c2cc3ccccc3oc2=O)o1	No
N#CC1=C2N=C(N)c3c(sc4c3CCCCC4)N2C2=C(C(=O)CCC2)C1c1ccccc1 (stereo not drawn)	No

---

# System Tested: Rap guanine nucleotide exchange factor 4 (Homo sapiens) (UniProt Q8WZA2)
# Sequence (Q8WZA2 whole entry, looked up): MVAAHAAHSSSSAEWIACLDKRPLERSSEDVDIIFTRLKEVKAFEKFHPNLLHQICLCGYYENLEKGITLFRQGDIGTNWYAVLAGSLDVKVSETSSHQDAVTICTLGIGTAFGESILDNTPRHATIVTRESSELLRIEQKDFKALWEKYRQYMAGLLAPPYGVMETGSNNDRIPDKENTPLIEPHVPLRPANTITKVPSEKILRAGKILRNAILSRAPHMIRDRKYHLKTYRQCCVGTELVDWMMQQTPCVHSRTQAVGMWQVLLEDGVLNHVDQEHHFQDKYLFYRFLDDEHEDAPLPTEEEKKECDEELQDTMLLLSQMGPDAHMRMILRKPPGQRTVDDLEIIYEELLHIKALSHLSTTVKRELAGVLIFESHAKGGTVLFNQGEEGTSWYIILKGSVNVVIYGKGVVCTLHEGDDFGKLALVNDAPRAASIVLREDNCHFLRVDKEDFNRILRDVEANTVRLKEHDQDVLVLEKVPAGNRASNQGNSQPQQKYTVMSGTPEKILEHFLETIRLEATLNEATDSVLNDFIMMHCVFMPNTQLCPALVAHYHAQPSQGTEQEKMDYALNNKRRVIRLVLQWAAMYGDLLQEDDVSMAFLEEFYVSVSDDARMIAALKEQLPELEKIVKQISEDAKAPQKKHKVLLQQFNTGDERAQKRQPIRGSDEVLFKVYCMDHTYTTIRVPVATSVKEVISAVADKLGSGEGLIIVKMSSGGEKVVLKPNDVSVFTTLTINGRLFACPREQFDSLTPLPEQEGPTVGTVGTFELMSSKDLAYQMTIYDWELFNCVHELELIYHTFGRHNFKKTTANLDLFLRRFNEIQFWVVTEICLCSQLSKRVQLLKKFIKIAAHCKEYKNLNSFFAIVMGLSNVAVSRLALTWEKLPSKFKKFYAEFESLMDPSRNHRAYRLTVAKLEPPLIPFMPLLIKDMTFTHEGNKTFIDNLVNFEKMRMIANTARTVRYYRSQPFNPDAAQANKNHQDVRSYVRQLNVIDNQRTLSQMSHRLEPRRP
# Experimental Protocol: Confirmatory qHTS for antagonist of cAMP-regulated guanine nucleotide exchange factor 4 (EPAC2) (AID 1645885); also: nearly all actives have a fitted effect of over 25% in size
# Test Parameters: EPAC2 Rap1B-BODIPY-GDP exchange fluorescence, biochemical; series mostly up to 12.7 µM
Results filed as inconclusive are left out. Activity calls are given as the source filed them. Calls follow the shape of the dose curve; as a rule, active = well fitted inhibition curve with a large enough effect; inconclusive = small, poorly fitted or top-dose-only effect; inactive = no such curve, though single readings can be large or run the other way.
Possible outcomes: active, inactive

Compound	Assigned Class
COc1ccccc1Nc1cc2cc(Br)ccc2c(=O)[nH]1	inactive
CC(C)(C)C(=O)N1CCC2CC1c1cc(-c3ccc4c(c3)OCO4)ccc12 (stereo not given)	inactive
O=C(O)c1ccc(NS(=O)(=O)c2ccc3c(c2)C2C=CCC2C(c2ccccc2F)N3)cc1 (stereo not given)	active
COc1ccc(-n2c(C)cc(/C=C3\SC(=O)NC3=O)c2C)cc1	inactive
O=C(c1[nH]c(C(F)(F)F)nc1-c1ccccc1)N1CCC(C(O)(c2ccccc2)c2ccccc2)CC1	inactive
CCc1nc2c(OCc3ccc(C(F)(F)F)cc3)cccn2c1N(C)C(=O)c1ccc(C)cc1	inactive
Nc1ccc2nc3c(=O)n(C4CCCCC4)c(=O)[nH]c3nc2c1	inactive
Cc1ccc(C)c(S(=O)(=O)Nc2ccc(C(=O)NCC(c3ccco3)N(C)C)cc2)c1 (stereo not given)	inactive
CCCC(=O)Oc1c(S(=O)(=O)c2ccc(C)cc2)c(C)nn1C(C)(C)C	inactive
Cc1cccc(NC(=O)CC2C(=O)OCCN2Cc2ccccc2)c1 (stereo not given)	inactive

---

# System Tested: Rap guanine nucleotide exchange factor 3 (Homo sapiens)
# Experimental Protocol: Confirmatory qHTS for antagonist of cAMP-regulated guanine nucleotide exchange factor 3 (EPAC1) (AID 1645880); also: nearly all actives have a fitted effect of over 55% in size
# Test Parameters: EPAC1 Rap1B-BODIPY-GDP exchange, fluorescence
Records with an inconclusive call do not appear. The source made the active and inactive calls. Calls come from the whole dose curve; as a rule, active = well fitted inhibition curve with a large enough effect; inconclusive = small, poorly fitted or top-dose-only effect; inactive = no such curve, though single readings can be large or run the other way.
Possible outcomes: active, inactive

Compound	Assigned Class
O=C(c1ccccc1)c1ccc(O)cc1O	inactive
CC(C)Oc1nc(-c2ccccc2Cl)nc2ccccc12	inactive
Cn1c2c(c3ccccc31)CCN1CCC[C@]21c1ccccc1	inactive
COc1ccc(C2CC(c3cccs3)=NN2c2ccc(C=O)cc2)cc1 (stereo unspecified)	inactive
CC(=O)N1CCc2c(sc(NC(=O)CS(=O)(=O)c3ccc(F)cc3)c2C(N)=O)C1	inactive
N#Cc1c(N2CCCCC2)nc(N)c2c(N)nc(SCC(=O)O)cc12	active
CCCCN(CCCC)Cc1cc(=O)oc2cc(C)c(Cl)cc12	inactive
O=[N+]([O-])c1cc(/C=N/O)ccc1Oc1ccccc1Cl	inactive
O=C(/C=C/c1cccc(Cl)c1Cl)OCC(=O)N1CCOCC1	inactive
c1ccc(-c2cnn3c(-c4ccccc4)c(-c4ccccc4)nc3n2)cc1	inactive
O=C1C=C(c2ccccc2Oc2ccccc2)C[C@@H](c2ccc(F)cc2)C1	inactive
